Target: human ERα (Homo sapiens)
Assay: IL-6 expression (ELISA, ER/IL-6) in Ad5-wt-hERα infected HAECT-1 cells
measure: IC50 (nM)
Quick reminder: number only, in nM, skip the unit.

Study these solved cases before continuing.
Exercise: Need IC50 of COc1ccc(-n2nc(-c3ccc(O)cc3O)c3ccc(O)cc32)cc1 , thanks.
Solution: 2320

Exercise: Need IC50 of Oc1ccc(-c2nn(Cc3ccccc3)c3c(Cl)cccc23)c(O)c1 , thanks.
Solution: 115

Exercise: Need IC50 of Oc1ccc(-c2nn(-c3ccc(Br)cc3)c3cc(O)ccc23)c(O)c1 , thanks.
Solution: 246

Turning to the following compound.
Exercise: Need IC50 of Oc1ccc(-c2n[nH]c3cc(Cl)c(F)cc23)cc1 , thanks.
Solution: 380

###

Overview of reported Emax across a group of compounds:
Target: human ERα (Homo sapiens)
Assay: NF-κB luciferase reporter (ER/NF-KB-luc) in Ad5-wt-hERα infected HAECT-1 cells
Conditions: HAECT1, read-out: ER/NF-KB-luc % E2, efficacy relative to the maximal inhibition observed with E2
Quick reminder: number only, in %, skip the unit.

Exercise: Need Emax of CCCn1nc(-c2ccc(O)cc2O)c2ccc(O)cc21 [Example 1] , thanks.
Solution: 74

Exercise: Need Emax of Cc1cc(O)ccc1-c1nn(C(C)C)c2c(-c3ccc(-c4ccccc4)cc3)cccc12 [Example 252] , thanks.
Solution: 59

Exercise: Need Emax of Cc1cc(O)ccc1-c1nn(C(C)C)c2c(-c3ccc(CO)cc3)cccc12 [Example 249] , thanks.
Solution: 59

Exercise: Need Emax of CC(C)Cn1nc(-c2ccc(O)cc2O)c2cccc(C(F)(F)F)c21 [Example 68] , thanks.
Solution: 74

New cases:
Exercise: Need Emax of Oc1ccc(-c2c3cccc(F)c3nn2C2CCCC2)cc1 [Example 61] , thanks.
Solution: 62

Exercise: Need Emax of C=CCn1nc(-c2ccc(O)cc2)c2cccc(C)c21 [Example 57] , thanks.
Solution: 89

Exercise: Need Emax of Cc1cc(O)ccc1-c1nn(C2CCCC2)c2c(-c3ccccc3)cccc12 [Example 265] , thanks.
Solution: 82

###

Biological target: human ERα (Homo sapiens, UniProt P03372)
Sequence (P03372 1-595): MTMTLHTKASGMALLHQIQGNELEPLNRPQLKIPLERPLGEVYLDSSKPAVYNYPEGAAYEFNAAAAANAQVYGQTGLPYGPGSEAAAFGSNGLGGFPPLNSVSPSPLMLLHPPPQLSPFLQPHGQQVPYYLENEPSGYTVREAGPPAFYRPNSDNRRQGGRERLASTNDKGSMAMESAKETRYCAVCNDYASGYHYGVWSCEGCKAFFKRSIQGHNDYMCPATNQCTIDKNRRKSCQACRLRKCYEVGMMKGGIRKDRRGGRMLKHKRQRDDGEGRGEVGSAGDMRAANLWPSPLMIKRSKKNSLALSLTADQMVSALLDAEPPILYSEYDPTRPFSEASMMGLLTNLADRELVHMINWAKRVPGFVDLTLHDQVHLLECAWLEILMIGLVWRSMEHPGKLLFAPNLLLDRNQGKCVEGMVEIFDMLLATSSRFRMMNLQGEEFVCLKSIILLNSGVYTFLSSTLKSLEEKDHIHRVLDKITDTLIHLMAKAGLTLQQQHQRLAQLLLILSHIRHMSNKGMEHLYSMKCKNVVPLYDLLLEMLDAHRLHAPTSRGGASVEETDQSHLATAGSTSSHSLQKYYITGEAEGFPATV
Assay: Creatine kinase expression (ER/CK) in Ad5-wt-hERα infected HAECT-1 cells
measure: EC50 (nM)
Quick reminder: number only, in nM, skip the unit.

Study these solved cases before continuing.
Exercise: Report EC50 for Oc1ccc(-c2c3cccc(Cl)c3nn2C2CCCC2)cc1 tested on human ERα (Homo sapiens, UniProt P03372).
Solution: 111

Exercise: Report EC50 for C=CCn1nc(-c2ccc(O)cc2)c2cccc(C(F)(F)F)c21 tested on human ERα (Homo sapiens, UniProt P03372).
Solution: 97

Exercise: Report EC50 for CCCn1nc(-c2ccc(O)cc2C)c2cccc(Cl)c21 tested on human ERα (Homo sapiens, UniProt P03372).
Solution: 413

Exercise: Report EC50 for CCCCn1nc(-c2ccc(O)cc2)c2ccc(Cl)cc21 tested on human ERα (Homo sapiens, UniProt P03372).
Solution: 1260

New cases:
Exercise: Report EC50 for Oc1ccc(-c2nn(-c3ccc(Br)cc3)c3cc(O)ccc23)c(O)c1 tested on human ERα (Homo sapiens, UniProt P03372).
Solution: 1830

###

Molecular target: human ERα (Homo sapiens, UniProt P03372)
Sequence (P03372 1-595): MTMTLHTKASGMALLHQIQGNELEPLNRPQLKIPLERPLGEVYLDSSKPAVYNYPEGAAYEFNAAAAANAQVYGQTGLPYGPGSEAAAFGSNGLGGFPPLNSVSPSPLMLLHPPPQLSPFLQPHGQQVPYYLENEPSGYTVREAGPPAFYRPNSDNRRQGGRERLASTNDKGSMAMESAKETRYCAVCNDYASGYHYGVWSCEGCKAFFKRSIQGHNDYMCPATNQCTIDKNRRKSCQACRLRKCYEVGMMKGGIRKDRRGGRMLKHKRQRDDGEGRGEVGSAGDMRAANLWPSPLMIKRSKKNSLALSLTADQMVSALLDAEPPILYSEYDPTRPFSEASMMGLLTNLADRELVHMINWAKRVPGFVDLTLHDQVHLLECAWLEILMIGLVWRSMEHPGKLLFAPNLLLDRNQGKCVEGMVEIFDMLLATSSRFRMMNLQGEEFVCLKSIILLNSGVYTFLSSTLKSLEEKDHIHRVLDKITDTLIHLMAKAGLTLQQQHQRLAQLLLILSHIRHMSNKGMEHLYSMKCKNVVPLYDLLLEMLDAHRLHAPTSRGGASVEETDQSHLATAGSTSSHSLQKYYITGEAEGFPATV
Assay: NF-κB luciferase reporter (ER/NF-KB-luc) in Ad5-wt-hERα infected HAECT-1 cells
Conditions: ER/NF-KB-luc IC50, Ad5-wt-ER infected HAECT-1 cells, IL-1β
measure: pIC50
By convention, pIC50 is the negative base-10 log of a molar concentration.

Exercise: Need pIC50 of CCCCCn1nc(-c2ccc(O)cc2O)c2cccc(C(F)(F)F)c21 [Example 73] , thanks.
Solution: 7.03

Exercise: Need pIC50 of Cc1cc(O)ccc1-c1nn(C2CCCC2)c2c(-c3ccco3)cccc12 [Example 263] , thanks.
Solution: 7.52

Exercise: Need pIC50 of CCCCCn1nc(-c2ccc(O)cc2)c2cccc(C(F)(F)F)c21 [Example 47] , thanks.
Solution: 7.01

Exercise: Need pIC50 of CCc1ccc(-c2cccc3c(-c4ccc(O)cc4)nn(C(C)C)c23)cc1 [Example 232] , thanks.
Solution: 6.84

Exercise: Need pIC50 of CSc1ccc(-c2cccc3c(-c4ccc(O)cc4C)nn(C4CCCC4)c23)cc1 [Example 257] , thanks.
Solution: 7.37

Exercise: Need pIC50 of CCCn1nc2c(Cl)cccc2c1-c1ccc(O)cc1 [Example 44] , thanks.
Solution: 7.37

Exercise: Need pIC50 of Cc1cc(O)ccc1-c1nn(C(C)C)c2c(F)cccc12 [Example 91] , thanks.
Solution: 7.10

Exercise: Need pIC50 of CCCCCn1nc2c(Cl)cccc2c1-c1ccc(O)cc1 [Example 42] , thanks.
Solution: 6.72

New cases:
Exercise: Need pIC50 of Cn1nc(-c2ccc(O)cc2)c2cccc(Cl)c21 [Example 126] , thanks.
Solution: 6.87

Exercise: Need pIC50 of CCCCC/C=C/c1cccc2c(-c3ccc(O)cc3C)nn(C3CCCC3)c12 [Example 258] , thanks.
Solution: 6.19

Exercise: Need pIC50 of Oc1ccc(-c2nn(-c3cccc(Br)c3)c3cc(O)ccc23)c(O)c1 [Example 14] , thanks.
Solution: 7.28

###

Molecular target: human ERα (Homo sapiens, UniProt P03372)
Sequence (P03372 1-595): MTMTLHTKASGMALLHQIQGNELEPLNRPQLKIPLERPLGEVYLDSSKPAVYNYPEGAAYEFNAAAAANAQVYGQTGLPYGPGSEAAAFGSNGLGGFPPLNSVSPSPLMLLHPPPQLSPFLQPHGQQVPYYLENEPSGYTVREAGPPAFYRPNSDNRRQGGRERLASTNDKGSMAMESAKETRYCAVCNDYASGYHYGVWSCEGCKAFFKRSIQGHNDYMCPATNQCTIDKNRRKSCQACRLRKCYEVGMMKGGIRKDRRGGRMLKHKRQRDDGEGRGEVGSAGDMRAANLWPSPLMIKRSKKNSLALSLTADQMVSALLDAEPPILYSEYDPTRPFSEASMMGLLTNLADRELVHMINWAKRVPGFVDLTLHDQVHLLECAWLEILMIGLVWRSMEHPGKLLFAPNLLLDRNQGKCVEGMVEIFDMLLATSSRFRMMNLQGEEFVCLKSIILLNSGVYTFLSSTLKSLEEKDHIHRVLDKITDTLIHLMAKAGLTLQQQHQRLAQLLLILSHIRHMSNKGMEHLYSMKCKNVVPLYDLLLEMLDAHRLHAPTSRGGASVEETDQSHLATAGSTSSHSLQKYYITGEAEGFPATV
Test: NF-κB luciferase reporter (ER/NF-KB-luc) in Ad5-wt-hERα infected HAECT-1 cells
Settings: ER/NF-KB-luc IC50, Ad5-wt-ER infected HAECT-1 cells, IL-1β
measure: IC50 (nM)
Quick reminder: number only, in nM, skip the unit.

Exercise: Need IC50 of Cn1nc(-c2ccc(O)cc2)c2cccc(C(F)(F)F)c21 [Example 169] , thanks.
Solution: 65

Exercise: Need IC50 of Cc1cc(O)ccc1-c1nn(C2CCCC2)c2c(-c3ccccc3Cl)cccc12 [Example 262] , thanks.
Solution: 8

Exercise: Need IC50 of Oc1ccc(-c2nn(-c3ccc(Br)cc3)c3c(C(F)(F)F)cccc23)cc1 [Example 31] , thanks.
Solution: 636
